The measurements presented in this section are drawn from ChEMBL document CHEMBL1121901.

# Species on record: Rattus norvegicus
# Assay overview: Inhibitory activity against 48/80 induced release of Histamine from isolated rat peritoneal mast cells at a dose of 2*10e-4 mol
# Type: functional
Property label: Inhibition (%)
# value in %; strip the unit string

{"Structure": "Cl.O=C1OC2(CCN(Cc3ccccc3)CC2)Cc2ccccc21", "Reported value": 20}
{"Structure": "CCCCCCN1CCC2(CC1)Cc1ccccc1C(=O)O2.Cl", "Reported value": 32}
{"Structure": "CCCCCN1CCC2(CC1)Cc1ccccc1C(=O)O2.Cl", "Reported value": 23}

Let's switch to this compound now.
Field request: Inhibition | item: Cl.c1ccc(CCN2CCC3(CC2)COCc2ccccc23)cc1
28

====

Reported Inhibition values are given for each entry in this list.
# Species: Rattus norvegicus
# Assay overview: Inhibitory activity against 48/80 induced release of Histamine from isolated rat peritoneal mast cells at a dose of 2*10e-4 mol
# Format: functional
# value in %; strip the unit string

The examples below pair each entry with its known result.
{"Compound": "O=C1OCC2(CCN(CCc3ccccc3)CC2)c2ccccc21", "Property label": "Inhibition", "Unit": "%", "Reported value": 15}
{"Compound": "Cl.O=C1OC2(CCN(CCCc3ccccc3)CC2)Cc2ccccc21", "Property label": "Inhibition", "Unit": "%", "Reported value": 5}

Field request: Inhibition | item: O=C([O-])c1cc(=O)c2c(OCC(O)COc3cccc4oc(C(=O)[O-])cc(=O)c34)cccc2o1.[Na+].[Na+] [CROMOLYN SODIUM]
31

Same thing, different compound: Cl.O=C1OCC2(CCN(Cc3ccccc3)CC2)c2ccccc21
5

Same thing, different compound: CCCCN1CCC2(CC1)Cc1ccccc1C(=O)O2.Cl
18
